- EXPERIMENTAL PROTOCOL: basal CRE-LacZ reporter activity in PC12 – cell-based, unstimulated, primary screen (AID 1145)
- TEST CONTEXT: no forskolin, luminescence, 4.5 h; higher = more signal, called active from +8 up or from −8 down unless noted
Hi, to clarify the labels: true covers z-score from 0.2 upward, false covers anything below 0.2.

{"COMPOUND": "C=C(CC1(CNP(=O)(c2ccccc2)c2ccccc2)CC1)c1ccccc1", "GROUP": "false"}
{"COMPOUND": "CCc1cc2c(nc1CC)CCN(CCC(C)=NOC)C2", "GROUP": "true"}
{"COMPOUND": "COC(=O)[C@@]1(Cc2ccccc2)[C@H]2c3cc(C(=O)N(C)C)n(C)c3C[C@H]2CN1C(=O)c1ccccc1", "GROUP": "false"}
{"COMPOUND": "COC(=O)C1(C)C=C2C(=C(C)C(=O)C2C)CN1 (stereo not drawn)", "GROUP": "false"}
{"COMPOUND": "CCCc1cc2c(n1Cc1cccc(Cl)c1)C(C)C1CN(C(=O)c3ccccc3)C(C)(C(=O)OC)C21 (stereo not drawn)", "GROUP": "false"}
{"COMPOUND": "CCCc1cc2c(n1Cc1ccco1)C(C)C1CN(C(=O)c3ccccc3)C(C)(C(=O)OC)C21 (stereo not drawn)", "GROUP": "true"}
{"COMPOUND": "CCCc1cc2c(n1Cc1ccc(C)cc1)C(C)C1CN(C(=O)c3ccccc3)C(C)(C(=O)OC)C21 (stereo not drawn)", "GROUP": "true"}
{"COMPOUND": "CN1CCc2nc(CO)c(CO)cc2C1", "GROUP": "true"}
{"COMPOUND": "CCCc1cc2c(n1CCO)C(C)C1CN(C(=O)c3ccccc3)C(C)(C(=O)OC)C21 (stereo not drawn)", "GROUP": "true"}
{"COMPOUND": "COC(=O)[C@H]1C(=O)c2ccccc2O[C@@](C(=O)OC)(c2ccccc2)[C@@H]1c1ccccc1", "GROUP": "false"}
{"COMPOUND": "c1ccc(-c2cc3c(nc2-c2ccccc2)CCNC3)cc1", "GROUP": "true"}

====

- Tested on: XIP peptide (Xip251-270) binding
- EXPERIMENTAL PROTOCOL: XIP fragment 251-270 binding compounds – biochemical, small-molecule microarray, fluorescence 635/667 nm, 0.1 µg/mL protein, primary screen (AID 1182)
- TEST CONTEXT: fluorescent protein binding, 635 nm; higher = more signal, called active from +8 up or from −8 down unless noted
Activity calls are given as the source filed them.
Let's look at some molecules and their measured composite z-score.
ENDPOINT: composite z-score

{"MOLECULE": "CN1CCc2nc(CO)c(CO)cc2C1", "RESULT": "-0.102 (inactive)"}
{"MOLECULE": "CN1CCC(c2ccc(CO)cc2)=CC1c1cccs1 (configuration not stated)", "RESULT": "0.219 (inactive)"}
{"MOLECULE": "C=C(CC1(C(C)NP(=O)(c2ccccc2)c2ccccc2)CC1)c1ccccc1 (configuration not stated)", "RESULT": "-0.131 (inactive)"}
{"MOLECULE": "OCc1ccc(C2=CC(c3cccs3)N(Cc3cccc(OC(F)(F)F)c3)CC2)cc1 (configuration not stated)", "RESULT": "0.209 (inactive)"}
{"MOLECULE": "COC(=O)[C@@]1(Cc2ccccc2)[C@H]2c3cc(C(=O)N(C)C)n(C)c3C[C@H]2CN1C(=O)c1ccccc1", "RESULT": "0.0028 (inactive)"}
{"MOLECULE": "CN1CCC(c2ccc(CO)cc2)=CC1C1CC1 (configuration not stated)", "RESULT": "-0.809 (inactive)"}
{"MOLECULE": "c1ccc(-c2cc3c(nc2-c2ccccc2)CCNC3)cc1", "RESULT": "0.236 (inactive)"}

====

- EXPERIMENTAL PROTOCOL: blood-stage malaria parasite viability loss – strain 3D7, DAPI fluorescence, 100 nL, primary screen (AID 1184);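 note: parasites grown inside human red blood cells in medium with human serum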
- TEST CONTEXT: P. falciparum 3D7 growth, 3 d, higher = more signal
Would you mind sorting the entries by z-score according to these classes? 0: < -0.7; 1: ≥ -0.7 and < -0.08; 2: ≥ -0.08

{"MOLECULE": "COC(=O)[C@@]1(Cc2ccccc2)[C@H]2c3cc(C(=O)N(C)C)n(C)c3C[C@H]2CN1C(=O)c1ccccc1", "GROUP": 0}
{"MOLECULE": "CCCC=C(CCC)[C@@H](NP(=O)(c1ccccc1)c1ccccc1)c1ccccc1", "GROUP": 0}
{"MOLECULE": "CCCc1cc2c(n1CCO)C(C)C1CN(C(=O)c3ccccc3)C(C)(C(=O)OC)C21 (stereo not given)", "GROUP": 2}
{"MOLECULE": "CCCC[C@@H]1C[C@H]1[C@@H](NP(=O)(c1ccccc1)c1ccccc1)c1ccc(Cl)cc1", "GROUP": 2}
{"MOLECULE": "COC(=O)[C@@]1(Cc2ccccc2)[C@H]2c3cc(C(=O)N(C)C)[nH]c3C[C@H]2CN1C(=O)c1ccccc1", "GROUP": 2}
{"MOLECULE": "c1ccc(-c2cc3c(nc2-c2ccccc2)CCNC3)cc1", "GROUP": 1}
{"MOLECULE": "COC(=O)[C@H]1[C@@H](O)[C@@]2(O)c3c(OC)cc(OC)cc3O[C@@]2(c2ccc(OC)cc2)[C@@H]1c1ccccc1", "GROUP": 0}
{"MOLECULE": "OCc1ccc(C2=CC(C3CC3)N(Cc3sc4ccccc4c3Cl)CC2)cc1 (stereo not given)", "GROUP": 0}
{"MOLECULE": "CCCc1cc2c(n1Cc1ccco1)C(C)C1CN(C(=O)c3ccccc3)C(C)(C(=O)OC)C21 (stereo not given)", "GROUP": 2}
{"MOLECULE": "OCc1ccc(C2=CC(c3cccs3)N(Cc3cccc(OC(F)(F)F)c3)CC2)cc1 (stereo not given)", "GROUP": 0}
{"MOLECULE": "C=C(CC1(C(C)NP(=O)(c2ccccc2)c2ccccc2)CC1)c1ccccc1 (stereo not given)", "GROUP": 0}
{"MOLECULE": "O=P(c1ccccc1)(c1ccccc1)N1CC2(CC2)CC(O)(c2ccccc2)C1 (stereo not given)", "GROUP": 2}
{"MOLECULE": "C=C(CC1(CNP(=O)(c2ccccc2)c2ccccc2)CC1)c1ccccc1", "GROUP": 1}
{"MOLECULE": "CCOC(=O)[C@H]1CC=C2C(=O)Oc3ccc(Br)cc3[C@@H]21", "GROUP": 1}
{"MOLECULE": "COC(=O)[C@H]1[C@H](c2ccccc2)C(=O)[C@]2(O)c3ccccc3O[C@@]12c1ccccc1", "GROUP": 2}
{"MOLECULE": "CCCc1cc2c(n1Cc1ccc(C)cc1)C(C)C1CN(C(=O)c3ccccc3)C(C)(C(=O)OC)C21 (stereo not given)", "GROUP": 1}
{"MOLECULE": "CN1CCc2nc(CO)c(CO)cc2C1", "GROUP": 1}
{"MOLECULE": "COC(=O)[C@H]1C(=O)c2ccccc2O[C@@](C(=O)OC)(c2ccccc2)[C@@H]1c1ccccc1", "GROUP": 0}
{"MOLECULE": "COc1cc2c(cc1O)C=[N+](C)CC2", "GROUP": 2}
{"MOLECULE": "CCCc1cc2c(n1Cc1cccc(Cl)c1)C(C)C1CN(C(=O)c3ccccc3)C(C)(C(=O)OC)C21 (stereo not given)", "GROUP": 1}

====

Let's look at some compounds and their measured z-score.
- TESTED TARGET: NADPH oxidase 2 (Homo sapiens) (UniProt P04839)
- Sequence (P04839 whole entry, looked up): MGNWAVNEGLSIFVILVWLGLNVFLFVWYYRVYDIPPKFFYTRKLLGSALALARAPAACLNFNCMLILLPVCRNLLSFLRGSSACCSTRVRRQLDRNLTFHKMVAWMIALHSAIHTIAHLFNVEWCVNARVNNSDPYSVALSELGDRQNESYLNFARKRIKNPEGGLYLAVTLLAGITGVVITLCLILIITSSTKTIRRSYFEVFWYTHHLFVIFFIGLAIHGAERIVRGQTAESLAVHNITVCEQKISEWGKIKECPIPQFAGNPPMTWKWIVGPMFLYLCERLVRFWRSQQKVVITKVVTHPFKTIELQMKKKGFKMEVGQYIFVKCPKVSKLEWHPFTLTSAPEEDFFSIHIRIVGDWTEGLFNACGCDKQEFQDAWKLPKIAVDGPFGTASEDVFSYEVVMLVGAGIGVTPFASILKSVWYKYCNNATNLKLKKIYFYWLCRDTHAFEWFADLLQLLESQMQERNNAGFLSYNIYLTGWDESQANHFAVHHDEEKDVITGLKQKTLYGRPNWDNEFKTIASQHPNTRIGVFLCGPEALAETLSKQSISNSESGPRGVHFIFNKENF
- EXPERIMENTAL PROTOCOL: compounds shifting NOX2 Amplex Red fluorescence – cell-based, HEK293-NOX2, PMA-stimulated, NOX inhibitor project, primary screen (AID 1159)
- TEST CONTEXT: 45 min; higher = more signal, called active from +8 up or from −8 down unless noted
Active and inactive are the calls of the source.

{"ENTRY SMILES": "COC(=O)[C@@]1(Cc2ccc(F)cc2)[C@H]2c3cc(C(=O)N(C)C)[nH]c3C[C@H]2CN1C(=O)c1ccccc1", "z-score": "0.33 [setting not given] (inactive)"}
{"ENTRY SMILES": "C[C@@H]1Cc2c(cnc3c2CN(C)CC3)CO1", "z-score": "1.5 (inactive)"}
{"ENTRY SMILES": "CCc1cc2c(nc1CC)CCN(CCC(C)=NOC)C2", "z-score": "-0.0413 (inactive)"}
{"ENTRY SMILES": "C=C(CC1(CNP(=O)(c2ccccc2)c2ccccc2)CC1)c1ccccc1", "z-score": "-0.335 (inactive)"}
{"ENTRY SMILES": "CCCC=C(CCC)[C@@H](NP(=O)(c1ccccc1)c1ccccc1)c1ccccc1", "z-score": "-1.7 (inactive)"}
